Just for reference, ChEMBL document CHEMBL5338801 is where these values come from.

- assay_explanation: Partition coefficient, logD of compound in 1-octanol and phosphate buffer at pH 7.4 incubated for 1 hr under shaking condition by HPLC analysis
- Type: physicochemical
- experimental_parameters: 1-octanol/phosphate buffer, pH 7.4
observed_property: logD at 1 h

Suppose we examine the compound CN(C)CCCN1c2ccccc2Sc2ccc(Cl)cc21 ; what logD at 1 h value has been reported?
3.18

[A] COc1cc(OCc2cccc(-c3ccccc3)c2C)cc(OC)c1CNCCO[C@H]1O[C@H](CO)[C@@H](O)[C@H](O)[C@@H]1O
[B] COc1nc(OCc2cccc(-c3ccccc3)c2C)ccc1CNCCO
For the two items A and B , which reports the higher logD at 1 h value? Write down the label of the entry you select.
B
(B: 3.23, A: 1.78)

====

- assay_explanation: Partition coefficient, logD of compound in 1-octanol and phosphate buffer at pH 7.4 incubated for 1 hr under shaking condition by HPLC analysis
- Format: physicochemical
- experimental_parameters: 1-octanol/phosphate buffer, pH 7.4
observed_property: logD at 1 h

Examples with their reported logD at 1 h follow.
Give its logD at 1 h value. Item: COc1cc(OCc2cccc(-c3ccccc3)c2C)cc(OC)c1CNCCO
2.85

Given COc1cc(OCc2cccc(-c3ccccc3)c2C)cc(OC)c1CN[C@H](C)CO , state its recorded logD at 1 h.
3.25

Entry under review: CN(C)CCC=C1c2ccccc2CCc2ccccc21 . Reported logD at 1 h?
3

[a] COc1nc(OCc2cccc(-c3ccccc3)c2C)ccc1CNCCNC(C)=O
[b] COc1nc(OCc2cccc(-c3ccccc3)c2C)ccc1CNCCO[C@@H]1O[C@H](CO)[C@@H](O)[C@H](O)[C@H]1NC(C)=O
When a and b are compared, which has the higher number for logD at 1 h? Pick one and reply with its label.
a

====

- subject_of_test: Programmed cell death protein 1/Programmed cell death 1 ligand 1 (Homo sapiens)
- assay_explanation: Inhibition of human PD-1/PD-L1 interaction overexpressed in human HEK293T cells by flow cytometry analysis
- Format: cell-based
observed_property: IC50 (nM)
Express it in nM; write the number only.

IC50 of COc1nc(OCc2cccc(-c3ccccc3)c2C)ccc1CNCCO[C@@H]1O[C@H](CO)[C@@H](O)[C@H](O)[C@H]1NC(C)=O on Programmed cell death protein 1/Programmed cell death 1 ligand 1 (Homo sapiens)?
49.4

In the following, a different compound is considered.
Request body: readout IC50, system Programmed cell death protein 1/Programmed cell death 1 ligand 1 (Homo sapiens), query COc1cc(OCc2cccc(-c3ccccc3)c2C)cc(OC)c1CNCCO[C@H]1O[C@H](CO)[C@@H](O)[C@H](O)[C@@H]1O . Return the value.
60.8

====

- assay_explanation: Tmax in CD-1 mouse at 5 mg/kg, ip measured upto 24 hrs by UPLC analysis
- Format: ADME, organism-based
- experimental_parameters: in vivo
observed_property: Tmax (min)
The response must be a number in min with no trailing unit.

Item under review: COc1cc(OCc2cccc(-c3ccccc3)c2C)cc(OC)c1CNCCO[C@H]1O[C@H](CO)[C@@H](O)[C@H](O)[C@@H]1O . Reported Tmax?
34.8

====

- subject_of_test: Programmed cell death protein 1/Programmed cell death 1 ligand 1 (Homo sapiens, UniProt Q9NZQ7)
- Sequence (Q15116 whole entry): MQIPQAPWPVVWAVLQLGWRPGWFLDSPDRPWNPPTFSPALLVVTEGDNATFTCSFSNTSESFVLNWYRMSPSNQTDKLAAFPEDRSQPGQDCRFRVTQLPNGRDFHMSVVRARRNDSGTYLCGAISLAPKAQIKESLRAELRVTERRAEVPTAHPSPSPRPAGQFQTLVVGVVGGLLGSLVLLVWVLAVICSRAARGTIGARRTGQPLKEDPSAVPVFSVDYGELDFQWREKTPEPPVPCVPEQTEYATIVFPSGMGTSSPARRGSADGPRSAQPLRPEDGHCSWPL
- Sequence (Q9NZQ7 whole entry): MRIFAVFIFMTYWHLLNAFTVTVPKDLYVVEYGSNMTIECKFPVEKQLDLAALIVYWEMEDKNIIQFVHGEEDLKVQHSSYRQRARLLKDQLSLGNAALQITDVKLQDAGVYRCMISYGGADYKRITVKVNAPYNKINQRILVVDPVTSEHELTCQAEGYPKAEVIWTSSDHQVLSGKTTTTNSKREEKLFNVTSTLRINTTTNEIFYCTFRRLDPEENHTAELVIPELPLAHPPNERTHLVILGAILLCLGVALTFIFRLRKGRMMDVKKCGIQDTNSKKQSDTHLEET
- assay_explanation: Inhibition of PD-1/PD-L1 (unknown origin) interaction incubated for 15 mins by HTRF assay
- Type: protein-complex assay
// reported pIC50 for each item listed
# pIC50: negative log10 of molar concentration; output just the value

Observe how each entry below is paired with its result.
So what's the measured pIC50 for this one? COc1cc(OCc2cccc(-c3ccccc3)c2C)cc(OC)c1CNCc1cn([C@@H]2O[C@H](CO)[C@@H](O)[C@H](O)[C@H]2O)nn1
6.83

Quick one: pIC50 of COc1nc(OCc2cccc(-c3ccccc3)c2C)ccc1CNCc1cn([C@@H]2O[C@@H]3CO[C@@H](c4ccccc4)O[C@H]3[C@H](O)[C@H]2O)nn1 ?
6.34

Quick one: pIC50 for COc1ccc(CNCc2cn([C@@H]3OC[C@@H](O)[C@@H](O)[C@H]3O)nn2)cc1OCc1cccc(-c2ccccc2)c1C ?
5.65

Value lookup for pIC50; key = COc1nc(OCc2cccc(-c3ccccc3)c2C)ccc1CNCc1cn([C@@H]2O[C@H](CO)[C@H](O)[C@H](O)[C@H]2O)nn1
6.76

Request the reported pIC50 associated with COc1ccc(CNCc2cn([C@H]3OC[C@@H](O)[C@H](O)[C@@H]3O)nn2)cc1OCc1cccc(-c2ccccc2)c1C
6.30

Please look at the following molecule next.
Field request: pIC50 | item: COc1ccc(CNCc2cn([C@@H]3OC[C@H](O)[C@H](O)[C@H]3O)nn2)cc1OCc1cccc(-c2ccccc2)c1C
5.91

====

Overview of recorded inhibition for various molecules
- subject_of_test: Programmed cell death protein 1/Programmed cell death 1 ligand 1 (Homo sapiens) (UniProt Q15116+Q9NZQ7)
- experimental_parameters: dose 300.0 nM, time 15.0 min
Response body: numeric value in %, unit text excluded.

Given the entry Cc1c(COc2ccc(CNCCO)cc2F)cccc1-c1ccccc1 , report its measured inhibition.
57.1

***
Given the molecule COc1nc(OCc2cccc(-c3ccccc3)c2C)ccc1CNCCO , what is its reported inhibition?
94.5

Can you look up the measured inhibition of COc1ccc(CNCCO)cc1OCc1cccc(-c2ccccc2)c1C for me?
26.9

Reported inhibition, molecule Cc1c(COc2cc(CNCCO)ccc2Cl)cccc1-c1ccccc1 : ____
51.4

Which measured inhibition value corresponds to Cc1cc(OCc2cccc(-c3ccccc3)c2C)cc(C)c1CNCCO ?
62.8

Record request: inhibition value, item Cc1c(COc2ccc(Cl)c(CNCCO)c2)cccc1-c1ccccc1
36.7

====

# IC50 annotations
- subject_of_test: Programmed cell death protein 1/Programmed cell death 1 ligand 1 (Homo sapiens, UniProt Q9NZQ7)
- assay_explanation: Inhibition of PD-1/PD-L1 (unknown origin) interaction incubated for 15 mins by HTRF assay
- Format: protein-complex assay
The response must be a number in nM with no trailing unit.

For the compound COc1ccc(CNCc2cn([C@H]3O[C@@H](C)[C@@H](O)[C@@H](O)[C@@H]3O)nn2)cc1OCc1cccc(-c2ccccc2)c1C , what IC50 is on record?
1920

// query IC50 value for entry COc1cc(OCc2cccc(-c3ccccc3)c2C)cc(OC)c1CNCc1cn([C@H]2O[C@H](CO)[C@@H](O)[C@H](O)[C@@H]2O)nn1
114

I have this compound here, COc1nc(OCc2cccc(-c3ccccc3)c2C)ccc1CNCc1cn([C@@H]2O[C@H](CO)[C@@H](O)[C@H](OC)[C@H]2O)nn1 , and I need its recorded IC50.
305

# query: IC50 of entry COc1ccc(CNCc2cn([C@@H]3O[C@H](CO)[C@H](O)[C@H](O)[C@H]3O)nn2)cc1OCc1cccc(-c2ccccc2)c1C
612

====

- assay_explanation: Cmax in CD-1 mouse at 5 mg/kg, ip measured upto 24 hrs by UPLC analysis
- Format: ADME, organism-based
- Design: dose 5 mg/kg, time < 24 hrs, route ip
- experimental_parameters: in vivo
observed_property: Cmax (ng/mL)
// note: answer is a bare numeric in ng/mL

Value lookup for Cmax; key = COc1cc(OCc2cccc(-c3ccccc3)c2C)cc(OC)c1CNCCO[C@H]1O[C@H](CO)[C@@H](O)[C@H](O)[C@@H]1O
1630

====

- assay_explanation: Half life in CD-1 mouse at 10 mg/kg, ig measured upto 24 hrs by UPLC analysis
- Assay type: ADME, organism-based
- experimental_parameters: in vivo, po
observed_property: half-life (h)
Lab book: enter the figure in h, no units written.

What value of half-life has been reported for the following compound? COc1nc(OCc2cccc(-c3ccccc3)c2C)ccc1CNCCO[C@@H]1O[C@H](CO)[C@@H](O)[C@H](O)[C@H]1NC(C)=O
7.02

====

- assay_explanation: Observed AUC infinity in CD-1 mouse at 5 mg/kg, iv measured upto 24 hrs by UPLC analysis
- Assay type: ADME, organism-based
- Parameters: dose 5 mg/kg, time < 24 hrs, route iv
- experimental_parameters: mouse, in vivo, 24 h
observed_property: AUC (µg·h/mL)
// return numeric value only (unit: µg·h/mL, not printed)

I am curious: what AUC value has been reported for COc1cc(OCc2cccc(-c3ccccc3)c2C)cc(OC)c1CNCCO[C@H]1O[C@H](CO)[C@@H](O)[C@H](O)[C@@H]1O ?
1.11

====

- assay_explanation: Cmax in CD-1 mouse at 5 mg/kg, iv measured upto 24 hrs by UPLC analysis
- Assay type: ADME, organism-based
- Set-up: dose 5 mg/kg, time < 24 hrs, route iv
- experimental_parameters: in vivo
observed_property: Cmax (ng/mL)
Number in ng/mL, nothing else.

Would you kindly share the measured Cmax for COc1cc(OCc2cccc(-c3ccccc3)c2C)cc(OC)c1CNCCO[C@H]1O[C@H](CO)[C@@H](O)[C@H](O)[C@@H]1O ?
928
